- assay.remarks: Volume of distribution at steady state in Sprague-Dawley rat at 1 mg/kg, iv or 2 mg/kg, po
- Assay type: ADME, organism-based
- test.context: in vivo, read-out: Vdss
property.name: Vd (L/kg)
Use L/kg as the unit, but write only the number.

IN: // returns reported Vd for input O=C(N[C@@H]1CCC[C@@H](NC(=O)c2ccccn2)C1)c1cccc(Cl)c1
OUT: 3.4

###

- target.entity: Metabotropic glutamate receptor 1 (Rattus norvegicus, UniProt P23385)
- Sequence (P23385 whole entry): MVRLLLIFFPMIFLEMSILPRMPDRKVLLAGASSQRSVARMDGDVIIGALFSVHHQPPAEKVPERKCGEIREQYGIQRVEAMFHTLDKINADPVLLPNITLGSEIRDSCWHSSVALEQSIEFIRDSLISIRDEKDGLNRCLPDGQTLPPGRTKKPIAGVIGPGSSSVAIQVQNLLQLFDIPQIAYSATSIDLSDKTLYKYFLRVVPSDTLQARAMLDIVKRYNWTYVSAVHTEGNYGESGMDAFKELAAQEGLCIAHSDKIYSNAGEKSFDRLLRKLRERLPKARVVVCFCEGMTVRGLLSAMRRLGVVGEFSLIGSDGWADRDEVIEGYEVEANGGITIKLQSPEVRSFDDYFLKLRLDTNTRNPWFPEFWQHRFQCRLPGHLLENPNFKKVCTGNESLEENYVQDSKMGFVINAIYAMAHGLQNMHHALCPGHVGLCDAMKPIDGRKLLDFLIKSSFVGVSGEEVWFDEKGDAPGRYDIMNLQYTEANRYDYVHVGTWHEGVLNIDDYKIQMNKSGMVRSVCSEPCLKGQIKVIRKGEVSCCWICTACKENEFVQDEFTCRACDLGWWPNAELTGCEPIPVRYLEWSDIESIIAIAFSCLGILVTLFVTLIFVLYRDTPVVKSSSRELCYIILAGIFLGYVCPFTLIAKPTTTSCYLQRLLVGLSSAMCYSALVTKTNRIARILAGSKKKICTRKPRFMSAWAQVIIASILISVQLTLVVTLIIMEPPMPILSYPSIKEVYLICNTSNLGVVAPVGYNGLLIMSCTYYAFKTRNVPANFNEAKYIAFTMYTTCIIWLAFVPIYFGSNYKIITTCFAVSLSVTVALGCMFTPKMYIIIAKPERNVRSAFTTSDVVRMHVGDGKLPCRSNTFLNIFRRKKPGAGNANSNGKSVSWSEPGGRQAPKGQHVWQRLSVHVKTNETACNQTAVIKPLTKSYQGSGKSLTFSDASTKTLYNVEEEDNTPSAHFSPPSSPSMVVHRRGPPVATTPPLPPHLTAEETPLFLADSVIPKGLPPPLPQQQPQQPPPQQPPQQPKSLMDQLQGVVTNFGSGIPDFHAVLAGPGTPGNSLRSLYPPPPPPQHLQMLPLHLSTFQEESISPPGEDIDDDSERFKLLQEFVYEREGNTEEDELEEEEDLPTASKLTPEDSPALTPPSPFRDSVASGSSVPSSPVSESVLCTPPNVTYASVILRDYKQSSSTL
- assay.remarks: Antagonist activity at rat mGluR1 expressed in HEK293 cells assessed as inhibition of Ca2+ mobilization by FLIPR assay
property.name: IC50

>  <chemical.string>
Cc1cccc(C(=O)N[C@H]2CCC[C@]3(CN=C(c4cccc(Cl)c4)O3)C2)n1

>  <target.entity>
Metabotropic glutamate receptor 1 (Rattus norvegicus, UniProt P23385)

>  <IC50>
> 10 µM

$$$$
>  <chemical.string>
O=C(N[C@@H]1CCC[C@@H](NC(=O)c2cccc(Cl)c2)C1)c1cccc(F)c1

>  <target.entity>
Metabotropic glutamate receptor 1 (Rattus norvegicus, UniProt P23385)

>  <IC50>
2.1 µM

$$$$
>  <chemical.string>
N#Cc1cccc(C(=O)N[C@@H]2CCC[C@@H](NC(=O)c3ccccn3)C2)c1

>  <target.entity>
Metabotropic glutamate receptor 1 (Rattus norvegicus, UniProt P23385)

>  <IC50>
> 10 µM

$$$$
>  <chemical.string>
O=C(N[C@@H]1CCC[C@@H](NC(=O)c2ccccn2)C1)c1cccc(Cl)c1

>  <target.entity>
Metabotropic glutamate receptor 1 (Rattus norvegicus, UniProt P23385)

>  <IC50>
> 10 µM

$$$$

// below: IC50 requested for another compound
IN: Observed IC50 on Metabotropic glutamate receptor 1 (Rattus norvegicus, UniProt P23385) for O=C(N[C@H]1CCC[C@]2(CN=C(c3cccc(Cl)c3)O2)C1)c1ccccn1 , please.
OUT: > 10 µM
